test system: PPARg:RXRa 30nM:10nM, anti-RXR (NR concentration 30 nM, RXRa partner concentration 10 nM); assay: PBM binding z-score (relative to random genomic background probes); higher = stronger binding; sequences stand for … in GC…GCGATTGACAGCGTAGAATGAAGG
Quantity name: PBM binding z-score
Reply: number alone, nothing else.

Biopolymer sequence: CCAGACAGGTGAGAAGGTGACTCAGCCTCGATTA
Quantity name: PBM binding z-score
Numeric result: -0.409
//
Biopolymer sequence: AGTCAAAGTTCATCTAGGTAACGTAGGATATGCT
Quantity name: PBM binding z-score
Numeric result: 3.31
//
Biopolymer sequence: TCTAGTTGGTCACGGAGGTCACACACGACGGGTA
Quantity name: PBM binding z-score
Numeric result: 3.73
//
Biopolymer sequence: AGAATGAGGTTACCAAAGATCAGCGAAACGCTTG
Quantity name: PBM binding z-score
Numeric result: 0.865

Req: // returns reported PBM binding z-score for input AGAATGAGGTTATAAAGATCAGGGAATTGCGGTC
Resp: 0.752

Req: // returns reported PBM binding z-score for input GCTTGTAGATTAAGGTTAAGAAAGACTAAGCTAA
Resp: -0.258

Req: // returns reported PBM binding z-score for input CCTCGGAGGACAGAAGATCAGAGCTGTCCGCTTT
Resp: -0.616
